- Tested on: normal human dermal fibroblasts (NHF)
- PROTOCOL: ELISA test on normal human dermal fibroblasts (NHF): macromolecules in culture supernatant
- Assay type: cell-based
- ASSAY_CONDITIONS: Table 7; % difference compared to the control; 6 ppm
Where a SMILES comes first, the peptide text is derived from it. [ ]: non-standard residue; d: D form. The star is where a group is joined. Met(O2) = CS(=O)(=O)CC[C@H](N)C(=O)O; Palmitoyl = CCCCCCCCCCCCCCCC(=O)*
Below, each of the compounds is paired with its reported Collagen I in the dermis Test 1 value.

Please look at CCCCCCCCCCCCCCCC(=O)N[C@@H](CCCCN)C(=O)N[C@@H](Cc1ccccc1)C(=O)N[C@@H](CCS(C)(=O)=O)C(=O)N[C@@H](CCCCN)C(=O)O [Pal-K-F-MO2-K-OH] (Palmitoyl-KF[Met(O2)]K-OH) and tell me its recorded Collagen I in the dermis Test 1 on normal human dermal fibroblasts (NHF).
+81%

Please look at CCCCCCCCCCCCCCCC(=O)N[C@@H](CCCCN)C(=O)N[C@@H](CCS(C)(=O)=O)C(=O)N[C@H](C(=O)N[C@@H](CCCCN)C(=O)O)[C@@H](C)O [Pal-K-MO2-T-K-OH] (Palmitoyl-K[Met(O2)]TK-OH) and tell me its recorded Collagen I in the dermis Test 1 on normal human dermal fibroblasts (NHF).
+194%

Please look at CCCCCCCCCCCCCCCC(=O)N[C@@H](CCCCN)C(=O)N[C@@H](CCSC)C(=O)N[C@@H](CCCCN)C(=O)O [Pal-KMK-OH] (Palmitoyl-Lys-Met-Lys-OH) and tell me its recorded Collagen I in the dermis Test 1 on normal human dermal fibroblasts (NHF).
+63%

Please look at CCCCCCCCCCCCCCCC(=O)N[C@@H](CCCCN)C(=O)N[C@H](C(=O)N[C@@H](Cc1ccccc1)C(=O)N[C@@H](CCCCN)C(=O)O)[C@@H](C)O [Pal-K-T-F-K-OH, reference compound] (Palmitoyl-KTFK-OH) and tell me its recorded Collagen I in the dermis Test 1 on normal human dermal fibroblasts (NHF).
+103%

More entries:
Please look at CCCCCCCCCCCCCCCC(=O)N[C@@H](CCCCN)C(=O)N[C@@H](CCS(C)(=O)=O)C(=O)N[C@@H](CCCCN)C(=O)O [Pal-KMO2K-OH] (Palmitoyl-Lys-[Met(O2)]-Lys-OH) and tell me its recorded Collagen I in the dermis Test 1 on normal human dermal fibroblasts (NHF).
+187%

====

- Tested on: dermal NHF
- PROTOCOL: Immunostaining method on dermal NHF: collagen I (Table 7, Test 2)
- Format: cell-based, human
- ASSAY_CONDITIONS: % difference compared to the control, 2 ppm
Where a SMILES comes first, the peptide text is derived from it. [ ]: non-standard residue; d: D form. The star is where a group is joined. Met(O2) = CS(=O)(=O)CC[C@H](N)C(=O)O; Palmitoyl = CCCCCCCCCCCCCCCC(=O)*
MEASURED_QUANTITY: Collagen I in the dermis Test 2

Some molecules with known Collagen I in the dermis Test 2 results, for comparison:
Give recorded Collagen I in the dermis Test 2. CCCCCCCCCCCCCCCC(=O)N[C@@H](CCS(C)(=O)=O)C(=O)N[C@H](C(=O)N[C@@H](Cc1ccccc1)C(=O)N[C@@H](CCCCN)C(=O)O)[C@@H](C)O [Pal-MO2-T-F-K-OH] (Palmitoyl-[Met(O2)]TFK-OH)
+218%

Give recorded Collagen I in the dermis Test 2. CCCCCCCCCCCCCCCC(=O)NCCCCC(=O)N[C@@H](CCS(C)(=O)=O)C(N)=O [Pal-Ava-MO2-NH2]
+495%

Give recorded Collagen I in the dermis Test 2. CCCCCCCCCCCCCCCC(=O)N[C@@H](CCS(C)(=O)=O)C(=O)N[C@@H](CCCCN)C(=O)O [Pal-MO2-K-OH] (Palmitoyl-[Met(O2)]-Lys-OH)
+270%

Then there is this molecule:
Give recorded Collagen I in the dermis Test 2. CCCCCCCCCCCCCCCC(=O)N[C@@H](CCCCN)C(=O)N[C@@H](CCS(C)(=O)=O)C(=O)N[C@@H](CCCCN)C(=O)O [Pal-KMO2K-OH] (Palmitoyl-Lys-[Met(O2)]-Lys-OH)
+329%

====

Below, each of the compounds is paired with its reported Collagen I in the dermis Test 2 value.
- Tested on: dermal NHF
- PROTOCOL: Immunostaining method on dermal NHF: collagen I (Table 7, Test 2)
- Format: cell-based, human
- ASSAY_CONDITIONS: % difference compared to the control, 2 ppm
Where a SMILES comes first, the peptide text is derived from it. [ ]: non-standard residue; d: D form. The star is where a group is joined. Met(O2) = CS(=O)(=O)CC[C@H](N)C(=O)O; Palmitoyl = CCCCCCCCCCCCCCCC(=O)*

Some compounds with known Collagen I in the dermis Test 2 results, for comparison:
Give recorded Collagen I in the dermis Test 2. CCCCCCCCCCCCCCCC(=O)N[C@@H](CCCCN)C(=O)N[C@H](C(=O)N[C@@H](Cc1ccccc1)C(=O)N[C@@H](CCS(C)(=O)=O)C(N)=O)[C@@H](C)O [Pal-K-T-F-MO2-NH2] (Palmitoyl-KTF[Met(O2)]-NH2)
+267%

Give recorded Collagen I in the dermis Test 2. CCCCCCCCCCCCCCCC(=O)N[C@@H](CCS(C)(=O)=O)C(=O)NCCCCC(N)=O
+375%

Then there is this compound:
Give recorded Collagen I in the dermis Test 2. CCCCCCCCCCCCCCCC(=O)N[C@@H](CCCCN)C(=O)N[C@H](C(=O)N[C@@H](CCS(C)(=O)=O)C(=O)N[C@@H](CCCCN)C(=O)O)[C@@H](C)O [Pal-K-T-MO2-K-OH] (Palmitoyl-KT[Met(O2)]K-OH)
+273%

====

Below, each of the compounds is paired with its reported Coll. IV value.
- System: normal human dermal fibroblasts (NHF)
- PROTOCOL: ELISA test on normal human dermal fibroblasts (NHF): macromolecules in culture supernatant
- Type: cell-based
- ASSAY_CONDITIONS: % difference compared to the control; 4 ppm peptide
Where a SMILES comes first, the peptide text is derived from it. The star is where a group is joined. Palmitoyl = CCCCCCCCCCCCCCCC(=O)*
Kindly answer with a numeric value in %, unit omitted.

Give recorded Coll. IV. CCCCCCCCCCCCCCCC(=O)N[C@@H](CCCCN)C(=O)N[C@@H](CS)C(=O)N[C@@H](CCCCN)C(=O)O [Pal-KCK-OH] (Palmitoyl-Lys-Cys-Lys-OH)
-1

More entries:
Give recorded Coll. IV. CCCCCCCCCCCCCCCC(=O)N[C@@H](CCCCN)C(=O)N[C@@H](C)C(=O)N[C@@H](CCCCN)C(=O)O [Pal-KAK-OH, reference compound] (Palmitoyl-Lys-Ala-Lys-OH)
-6

====

- Test system: dermal NHF
- PROTOCOL: Immunostaining method on dermal NHF: collagen I (Table 7, Test 2)
- Format: cell-based, human
- ASSAY_CONDITIONS: % difference compared to the control, 6 ppm
Where a SMILES comes first, the peptide text is derived from it. [ ]: non-standard residue; d: D form. The star is where a group is joined. Met(O2) = CS(=O)(=O)CC[C@H](N)C(=O)O; Palmitoyl = CCCCCCCCCCCCCCCC(=O)*
Below, each of the molecules is paired with its reported Collagen I in the dermis Test 2 value.

Some molecules with known Collagen I in the dermis Test 2 results, for comparison:
Give recorded Collagen I in the dermis Test 2. CCCCCCCCCCCCCCCC(=O)N[C@@H](CCCCN)C(=O)N[C@@H](CCS(C)(=O)=O)C(=O)N[C@H](C(=O)N[C@@H](CCCCN)C(=O)O)[C@@H](C)O [Pal-K-MO2-T-K-OH] (Palmitoyl-K[Met(O2)]TK-OH)
+217%

Give recorded Collagen I in the dermis Test 2. CCCCCCCCCCCCCCCC(=O)N[C@@H](CCCCN)C(=O)N[C@H](C(=O)N[C@@H](Cc1ccccc1)C(=O)N[C@@H](CCS(C)(=O)=O)C(N)=O)[C@@H](C)O [Pal-K-T-F-MO2-NH2] (Palmitoyl-KTF[Met(O2)]-NH2)
+400%

Give recorded Collagen I in the dermis Test 2. CCCCCCCCCCCCCCCC(=O)N[C@@H](CCS(C)(=O)=O)C(=O)NCCCCC(N)=O [Pal-MO2-Ava-NH2]
+461%

Give recorded Collagen I in the dermis Test 2. CCCCCCCCCCCCCCCC(=O)NCCCCC(=O)N[C@@H](CCS(C)(=O)=O)C(N)=O [Pal-Ava-MO2-NH2]
+557%

Give recorded Collagen I in the dermis Test 2. CCCCCCCCCCCCCCCC(=O)N[C@@H](CCS(C)(=O)=O)C(=O)N[C@H](C(=O)N[C@@H](Cc1ccccc1)C(=O)N[C@@H](CCCCN)C(=O)O)[C@@H](C)O [Pal-MO2-T-F-K-OH] (Palmitoyl-[Met(O2)]TFK-OH)
+520%

More entries:
Give recorded Collagen I in the dermis Test 2. CCCCCCCCCCCCCCCC(=O)N[C@@H](CCS(C)(=O)=O)C(=O)N[C@@H](CCCCN)C(=O)O [Pal-MO2-K-OH] (Palmitoyl-[Met(O2)]-Lys-OH)
+226%

Give recorded Collagen I in the dermis Test 2. CCCCCCCCCCCCCCCC(=O)N[C@@H](CCCCN)C(=O)N[C@H](C(=O)N[C@@H](CCS(C)(=O)=O)C(=O)N[C@@H](CCCCN)C(=O)O)[C@@H](C)O [Pal-K-T-MO2-K-OH] (Palmitoyl-KT[Met(O2)]K-OH)
+262%
